- system: Gal(b1-3)[Fuc(a1-4)]GlcNAc(b1-2)Man(a1-3)[Gal(b1-3)[Fuc(a1-4)]GlcNAc(b1-2)Man(a1-6)]Man(b1-4)GlcNAc(b1-4)[Fuc(a1-6)]GlcNAc
- assay_overview: glycan array binding signal (z-score within array); higher = stronger binding
- experimental_parameters: glycan notation: IUPAC condensed, linker removed
About 410 targets per protein were measured; listed, in parts, are those with the strongest signals and a random draw of the rest.
Recorded glycan array binding signal (z-score) values for a group of binders are listed next.
quantity_measured: glycan array binding signal (z-score)

• SLP (Clostridium difficile), Q183M8 (protein) MATTGTQGYTVVKNDWKKAVKQLQDGLKDNSIGKITVSFNDGVVGEVAPKSANKKADRDAAAEKLYNLVNTQLDKLGDGDYVDFSVDYNLENKIITNQADAEAIVTKLNSLNEKTLIDIATKDTFGMVSKTQDSEGKNVAATKALKVKDVATFGLKSGGSEDTGYVVEMKAGAVEDKYGKVGDSTAGIAINLPSTGLEYAGKGTTIDFNKTLKVDVTGGSTPSAVAVSGFVTKDDTDLAKSGTINVRVINAKEESIDIDASSYTSAENLAKRYVFDPDEISEAYKAIVALQNDGIESNLVQLVNGKYQVIFYPEGKRLETKSLEHHHHHH = 5.55
• Aap arpt (Staphylococcus epidermidis) (protein) NNEAPQMSSTLQAEEGSNAEAPQSEPTKAEEGGNAEAAQSEPTKAEEGGNAEAPQSEPTKAEEGGNAEAAQSEPTKTEEGSNVKAAQSEPTKAEEGSNAEAPQSEPTKTEEGSNAKAAQSEPTKAEEGGNAEAAQSEPTKTEEGSNAEAPQSEPTKAEEGGYAEAPQSEPTKTEEGGNAEAPNVPTIKA = 2.23
• LF82 (Escherichia coli) (protein) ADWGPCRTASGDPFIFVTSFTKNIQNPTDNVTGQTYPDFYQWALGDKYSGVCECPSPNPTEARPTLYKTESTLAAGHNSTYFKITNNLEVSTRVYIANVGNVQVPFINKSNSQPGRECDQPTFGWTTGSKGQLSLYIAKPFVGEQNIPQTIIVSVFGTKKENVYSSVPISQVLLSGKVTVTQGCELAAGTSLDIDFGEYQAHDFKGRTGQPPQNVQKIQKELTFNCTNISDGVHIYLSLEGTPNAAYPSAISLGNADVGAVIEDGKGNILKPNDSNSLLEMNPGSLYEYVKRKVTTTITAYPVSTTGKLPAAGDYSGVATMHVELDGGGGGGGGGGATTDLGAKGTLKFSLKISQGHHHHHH = 0.378
• Mnn9-2N3 (Aspergillus fumigatus) (protein) MAVARRMRRTNPITLLLAAILAIGFFIFVLSPSTTSASPVKAGSASSSSTSQQRREDNAAENPLSPPTKPFFKSQPVRHDGQQAPPPVVQYNLNQLSSTSTSAANGERILILTPMARFVPEYWDNVVKLTYPHELISIGFIIPKNKEGNAALAALEAAIAKTQSGPIDKRFASISILRQDFEPPLQSQDEKERHKISNQKARRESMSRARNSLLFTTLGPATAWVLWLDADIVETPPTLIQDLTAHDHPVLVPNCYQRYYNSEKKKMDVRPYDYNSWIDSSTAQSMAAEMGPDEILLEGYAEMPTYRTLMAHLADTANPNPKKVIELDGVGGTALMVKAEVHRDGAMFPAFPFYHLVETEGFAKMAKRLGYSVYGLPDYFVSRNFFFFFFFFFFG = -0.841
